So I've got a bunch of compounds here, and I need their melting point values.

stdin: Quick one: melting point for Cc1c(C#N)c(Nc2ncnc3c2c2ccccc2n3Cc2ccccc2)n(-c2cccc(Cl)c2)c1C [Example 64] ?
stdout: 252.2 to 253.1 °C

stdin: Cc1c(C)n(Cc2ccccc2)c2ncnc(C(=NN)c3ccc(N(C)C)cc3)c12 [Example 31] , same question.
stdout: 219 to 221 °C

stdin: Try this compound next: Cc1c(C)n(Cc2ccccc2)c2ncnc(C(=NN)c3ccc(C#N)cc3)c12 [Example 35]
stdout: 223.5 to 225 °C

stdin: // same read-out, input: Cc1c(C#N)c(Nc2ncnc3c2c(C)c(C)n3Cc2ccccc2)n(Cc2ccccc2)c1C [Example 75]
stdout: 236 to 239.1 °C

stdin: Next compound: Cc1c(C)n(Cc2ccccc2)c2ncnc(NN=C3C(=O)Nc4ccc(Br)cc43)c12 [Example 45]
stdout: 288 to 290 °C

stdin: Quick one: Cc1c(C)n(-c2cccc(Cl)c2)c2ncnc(C(=NN)c3ccc(O)c([N+](=O)[O-])c3)c12 [Example 21]
stdout: 204.2 to 206.5 °C

stdin: Request: Cc1c(C)n(CCCN2CCOCC2)c2ncnc(NN=Cc3ccc(O)c([N+](=O)[O-])c3)c12 [Example 13]
stdout: 158.8 to 161.5 °C

Values from patent US20080214583A1
